# Target Entity: furin (human) (UniProt P09958)
# Method: enzyme inhibition kinetics (fluorogenic substrate); condition 3: 50 mM Hepes/NaOH pH 7.4, 300 mM NaCl, 2 mM CaCl2, 0.2% Triton X-100, 25 °C; substrate Ac-RR(Tle)KR-AMC; triplicates
Reported Endpoint: pKi
Reminder that pKi means the negative base-10 logarithm of the concentration expressed in mol/L.

Return reported pKi; argument: PC1/3-prodomain combination mutant M10 (M5 with His72Leu) (domain or fragment) GKRQFVNEWAAEIPGGPEAASAIAEELGYDLLGQIGSLENHYLFKLKNHPRKSARSAFHITKRLSDDDRVIWAEQQYEKERSKR
10.00

Source listed as paper PMC12405487.
